# credit: BigSolDB 2.1

- Run parameters: in n-butanol, 293.15 K
Result type: solubility (mole fraction)
Write the number on its own, no unit after it.

Provide one value: measured solubility (mole fraction) of `O=P(O)(O)c1ccccc1`
0.232

###

- Run parameters: in n-heptanol, 303.15 K
Result type: solubility (mole fraction)
Keep the answer to the number alone.

Supply reported solubility (mole fraction) belonging to this molecule: `O=P(O)(O)c1ccccc1`
0.183

###

- Run parameters: in ethanol, 278.15 K
Result type: solubility (mole fraction)
// no unit, no text: just the number

Write down solubility (mole fraction) measured for item `O=P(O)(O)c1ccccc1`
0.288

###

- Run parameters: in 1,4-dioxane, 288.15 K
Result type: solubility (mole fraction)
Answer with a number only.

Tell me its solubility (mole fraction) given `O=P(O)(O)c1ccccc1` as the entry.
0.186
